Please go through the items and note down their TGI.
# Tested on: SNB-78 CNS
# ASSAY_INFO: NCI tumour cell line growth inhibition, 48 h

[Q] GET /values?readout=TGI&item= Cc1ccc(C)c(NC(=O)C(=O)C(C2C(C)CC(=O)C2CC(=O)O)[N+](=O)[O-])c1 (configuration not stated)
[A] > 100 µM

[Q] Could you do the same for COC(=O)C(C(=O)C(=O)Nc1nc2ccc(OC)cc2s1)c1cnc2ccccc2n1 (configuration not stated) , please?
[A] > 100 µM

[Q] Could you do the same for Cc1nsc2cc(Cl)n(C)c(=O)c12 , please?
[A] > 100 µM

[Q] Could you do the same for COc1cc(Br)c(C=Nc2cccc3ccc(OS(=O)(=O)c4ccc([N+](=O)[O-])cc4)cc23)cc1OC , please?
[A] > 100 µM

[Q] Could you do the same for O=C1/C(=C/c2ccccc2)CN(C(=O)/C=C/c2ccccc2)C/C1=C\c1ccccc1 , please?
[A] > 73 µM

[Q] Could you do the same for CC[C@@]1(O)C(=O)OCc2c1cc1n(c2=O)Cc2cc3c(N)c(OC)ccc3nc2-1 , please?
[A] > 100 µM

[Q] Could you do the same for C=C1C(=O)OC2/C=C(CO)/C=C\C3OC3(C)CC(OC(=O)/C(C)=C/COC(C)=O)C12 (configuration not stated) , please?
[A] 23.4 µM
